B1: glmS ribozyme (parent)
chain: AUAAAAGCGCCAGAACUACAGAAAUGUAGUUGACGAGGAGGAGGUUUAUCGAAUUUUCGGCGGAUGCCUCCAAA

# Variants of: B1
# assay-notes: self-cleavage kobs at 40 uM GlcN6P; higher = faster cleavage; RNA array
# run-parameters: with glucosamine-6-phosphate
Fewer inactive variants are shown than the library holds.
test-readout: self-cleavage kobs at 40 uM GlcN6P

Please review the following examples before continuing.
AUAAAAGCGCCUGAACUACAGAAAUGUAGUUGACGAGGAGGAGGUUCAUCGAAUUUUCGACGGAUGCCUCCAAA [A12U U47C G60A] : < 1e-05 s⁻¹
AUAAAAGCGGCAGAACUACAGAAAUGUAGUUGACGAGGAGGAUGUUGAUCGAAUUUUCGGAGGAUGCCUCCAAA [C10G G43U U47G C61A] : < 1e-05 s⁻¹
AUAAAAGCGCCAGAACUACAGAAAUGUAGUUGACGAGGAGGAGGUUUACUGAAUUUUCGGCGGAUGCCUCCAAA [U49C C50U] : < 1e-05 s⁻¹
AUAAAAGCGCCAGAACUACAGAAAUGUAGUUGACGAGGAGGAGGUUUAUCGAAUUGUCGGCGGAUGCCUUCAAA [U56G C70U] : 0.000308 s⁻¹
AUAAAAGCGCCUGAACUACAGAAAUGUAGUCGACGAGGAGGAGGUUUAUCGAAUUUUCGGCGGAUGCCUCCAAA [A12U U31C] : 0.000254 s⁻¹
AUAAAAGCGCCAGAACUACAGAAAUGUAGUUGACGAGGACGGGGUUUAUCGAAUUUUCGGCGGAUGCCUCCAAA [G40C A42G] : 0.000131 s⁻¹
AUAAAAGCGCCAGAACUACAGAAAUGUAGUUGACGAGGAGGAGGUUCAUCGAAUUUUCGUCGGAUGCCUCCAAA [U47C G60U] : < 1e-05 s⁻¹
AUAAAAUCGCCAGAACUACAGAAAUGUAGUUGACGAGGAGGAGGUUUUUCGAAUUUUCGGCGGAUGCCUCCAAA [G7U A48U] : < 1e-05 s⁻¹

Notebook: AUAAAAGCGCCAGAAAUACAGAAAUGUAGUUGACGAGGAGGACGUUUGUCGAAUUUUCGGCGGAUGUCUCCAAA [C16A G43C A48G C67U] , self-cleavage kobs at 40 uM GlcN6P read as < 1e-05 s⁻¹

Notebook: AUAAAAGCGCCAGAACUACAGAAAUGUAGUUGACGAGGAGGAGGGUUAUUGAUUUUUCGGCGGAUGCCUCCAAA [U45G C50U A53U] , self-cleavage kobs at 40 uM GlcN6P read as < 1e-05 s⁻¹

Notebook: AUAAAGGCGCCGGAACUACAGAAAUGUAGUUGACGAGGAGGAGGUUUAUCGAAUUUUCGGCGGAUACCUCCAAA [A6G A12G G66A] , self-cleavage kobs at 40 uM GlcN6P read as < 1e-05 s⁻¹
